# Test system: Micrococcus luteus
# assay procedure: Antimicrobial activity against Micrococcus luteus by Kirby-Bauer growth inhibition assay
# Format: functional
Examples of molecules with documented Activity follow.

molecule: C[C@H]1C=C(C=O)C(C=O)=C[C@@H]2CC(C)(C)C[C@@H]21 [LACTARANE]
Activity: 15 µg
//
molecule: C[C@H]1C=C(C=O)C(CO)=C[C@@H]2CC(C)(C)C[C@@H]21 [VELLEROL]
Activity: 300 µg
//
molecule: CC1(C)C[C@H]2C=C3COC(O)[C@]34C[C@]4(C)[C@H]2C1 (stereo not given in full) [ISOVELLEROL]
Activity: 300 µg
//
molecule: CC1(C)C[C@H]2C=C(C=O)[C@]3(C=O)C[C@]3(C)[C@H]2C1 [ISOVELLERAL]
Activity: 2 µg
//
molecule: C[C@H]1C=C(CO)C(CO)=C[C@@H]2CC(C)(C)C[C@@H]21 [VELLERDIOL]
Activity: >1000 µg
